run.conditions: 318.15 K; 6180 kPa; Liquid; Vibrating tube method
Numbers after ± are expanded uncertainties.
Provide the reported mass density of each item.

Consider the compound Cc1cccnc1 [3-methylpyridine] and give its recorded mass density.
938.1 ± 0.3 kg/m3

Consider the compound Cc1ccccn1 [2-methylpyridine] and give its recorded mass density.
925.8 ± 0.8 kg/m3

Consider the compound c1ccncc1 [pyridine] and give its recorded mass density.
962.3 ± 0.2 kg/m3

Consider the compound Cc1ccncc1 [4-methylpyridine] and give its recorded mass density.
936.1 ± 0.3 kg/m3

---

run.conditions: 328.15 K; 20370 kPa; Liquid; Vibrating tube method
Provide the reported mass density of each item.
# number only, unit kg/m3 dropped from output

Consider the compound c1ccncc1 and give its recorded mass density.
962.8

Consider the compound Cc1cccnc1 and give its recorded mass density.
939.1

Consider the compound Cc1ccncc1 and give its recorded mass density.
937.1

Consider the compound Cc1ccccn1 and give its recorded mass density.
927.2
